- Test system: Spleen cells from BDF1 female mice
- Protocol Notes: Mitogenesis Assay for Immunosuppressive Activity (concanavalin A, 3H-thymidine)
- Assay type: cell-based
- Conditions Used: Mus musculus; Concanavalin A 5 μg/ml, 72 hours at 37° C., 3H-thimidine uptake last 18 hours; read-out: Mitogenesis IC50
Field: IC50. Provide a value for each of the compounds that follow.

# Compound, Recorded Measurement
data = [
    ("CO[C@@H]1C[C@H](C[C@@H](C)[C@@H]2CC(=O)[C@H](C)/C=C(\\C)[C@@H](O)[C@@H](OC)C(=O)[C@H](C)C[C@H](C)/C=C/C=C/C=C(\\C)[C@H](c3ccco3)C[C@@H]3CC[C@@H](C)[C@@](O)(O3)C(=O)C(=O)N3CCCC[C@H]3C(=O)O2)CC[C@H]1O [Example 14, 7-Demethoxy-7(R)-(2'-furanyl)rapamycin]", "< 500 nM"),
]

Here's the next entry for you.
## Task # IC50 lookup, item COc1ccc(CO[C@H]2C[C@@H]3CC[C@@H](C)[C@@](O)(O3)C(=O)C(=O)N3CCCC[C@H]3C(=O)O[C@H]([C@H](C)C[C@@H]3CC[C@@H](O)[C@H](OC)C3)CC(=O)[C@H](C)/C=C(\C)[C@@H](O)[C@@H](OC)C(=O)[C@H](C)C[C@H](C)/C=C/C=C/C=C/2C)cc1OC [Example 3]
## Result < 500 nM
